This collection of values is drawn from patent US20180222987A1.

Target: human CD123 on cells (human) (UniProt P26951)
Sequence (P26951 19-378): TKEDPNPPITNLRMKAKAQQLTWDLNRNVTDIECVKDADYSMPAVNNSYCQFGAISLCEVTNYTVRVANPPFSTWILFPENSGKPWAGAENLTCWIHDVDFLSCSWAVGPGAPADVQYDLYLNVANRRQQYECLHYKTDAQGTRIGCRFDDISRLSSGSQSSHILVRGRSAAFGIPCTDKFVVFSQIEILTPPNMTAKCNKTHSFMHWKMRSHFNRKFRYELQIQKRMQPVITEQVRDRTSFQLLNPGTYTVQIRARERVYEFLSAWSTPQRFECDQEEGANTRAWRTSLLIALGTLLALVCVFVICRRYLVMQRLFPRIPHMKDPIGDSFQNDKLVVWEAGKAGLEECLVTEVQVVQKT
Test: flow cytometry, THP-1 cells, 3 µg antibody
assay-endpoint: % FITC positive cells (%)
API: value field is a number in %; no unit string.

Look over these answered cases.
binder | recorded-measurement
CODV-Fab BFX-2F8-D6 × CD3 (bispecific antibody, V domains shown, not shown: a dimerising Fc or GST; small tags and cut ends) VH: QVQLKESGPGLVQPSQTLSLTCTVSGFSLTSYGVSWVRQPPGKGLEWIATISSAGSTYYDLVLKSRLSITRDTSKSQVFLKVHSLQTEDTAIYLCARDAPVFNYGSYNAMDSWGQGTSVTVSS VL: DIQMTQSPSFLSATVGDRVTINCKASQNINKYLNWYQQKLGEAPKRLIYNTNSLQTGIPSRFSGSGSGTDYTLTISSLQPEDVATYFCLQHKSGLTFGSGTKLEIK | 24
CODV-Fab BFX-3E3-D3 × CD3 (bispecific antibody, part only; not given: CD3 arm, linkers, constant domains, V domains shown, part only) VH: QVQLQESGPGLVQPSQTLSLTCTVSGFSLTTYDVHWVRQPPGKGLEWMGRIQNGGITDYNSALKSRLIISRDTSKSQVFLKMNSVQTEDTAMYFCAKTGSYFYAFDHWGQGTLVTVSS VL: QFVLTQPNSVSTNLGSTVKLSCKRNTGNIGSNYVNWYQQHEGRSPTTMIYRDDKRPDGVPDRFSGSIDRSSNSALLTINNVQTEDEADYFCQSYSSGINIIFGGGTKLTVL | 99

Ask: # query: % FITC positive cells of entry CODV-Fab BFX-9D7-C8 × CD3 (bispecific antibody, part only; not given: CD3 arm, linkers, constant domains, tag, V domains shown, not shown: another chain or arm of the molecule; a dimerising Fc or GST; small tags and cut ends) VH: EVKLQESGPSLVQSSQTLSLTCTVSGFSLTSYHIHWVRQTPGKGLEWMGVMWSDGDTSYNSALKSRLSISRDTSQSQVFLKMNSLQTEDTATYYCARGYYSSYLYLWFAYWGQGTLVTVSS VL: DIVMTQSPSSLAVSEGETVTINCKSSQSFLSSGDGKNYVAWYQYKPGQSPKLLIYWASTRQSGVPDRFIGSGSGTDFTLTISTVQAEDLAIYYCQQYYDTPLTFGSGTKLEIK
Reply: 88.7

Ask: Entry CODV-Fab BFX-9B8-G6 × CD3 (bispecific antibody, part only; not given: CD3 arm, linkers, constant domains, tag, V domains shown, not shown: another chain or arm of the molecule; a dimerising Fc or GST; small tags and cut ends) VH: EVKLQESGPSLVQSSQTLSLTCTVSGFSLTSYHIHWVRQPPGKGLEWMGVMWSDGDTSYSSALKSRLSISRDTSQSQVFLKMNSLQTEDTATYYCARGDYSSYIYLWFAYWGQGTLVTVSS VL: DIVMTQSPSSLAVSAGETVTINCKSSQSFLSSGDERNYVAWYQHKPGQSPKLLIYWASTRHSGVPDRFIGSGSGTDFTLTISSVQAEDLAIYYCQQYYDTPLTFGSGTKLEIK please
Reply: 48.8

Ask: Entry CODV-Fab BFX-9F6-G3 × CD3 (bispecific antibody, part only; not given: CD3 arm, linkers, constant domains, tag, V domains shown, not shown: another chain or arm of the molecule; a dimerising Fc or GST; small tags and cut ends) VH: QVQLQESGPTLVKPGDSVKMSCKASGYTFTDYIIHWVKQSHGKSLEWIGYINPYSDGTNYNEKFKSKATLTVDKSTSTAYMEFSRLTSEDSAIYFCALNYGSYYAMDAWGQGTSVTVSS VL: DIQMTQSPASLSASLGETVTIECRPSEDIHSNVAWYQQKPGNSPQLLIYDASNLADGVPSRFSGSGSGTQYSLKINSLQSEDVASYFCHQYNIYPYTFGSGTKLELK please
Reply: 99.7
